# Tested on: HCC38 cells
# assay.info: Resazurin-based cell viability assay, monotherapy drug screen
# Design: species or system human
# test.parameters: HCC38; drug efficacy at highest tested dose (<0 cytotoxic, 0 cytostatic, >0 partial growth inhibition)

smiles.representation: CC(C)C[C@H](NC(=O)[C@@H](NC(=O)c1cccc(-c2ccccc2)n1)[C@@H](C)O)B(O)O
GRmax: −0.97
--
smiles.representation: CC(=O)O[C@@]12CO[C@@H]1C[C@H](O)[C@@]1(C)C(=O)[C@H](O)C3=C(C)[C@@H](OC(=O)[C@H](O)[C@@H](NC(=O)OC(C)(C)C)c4ccccc4)C[C@@](O)([C@@H](OC(=O)c4ccccc4)[C@H]21)C3(C)C
GRmax: 0.17
--
smiles.representation: CC(C)C[C@H](NC(=O)[C@H](CCc1ccccc1)NC(=O)CN1CCOCC1)C(=O)N[C@@H](Cc1ccccc1)C(=O)N[C@@H](CC(C)C)C(=O)[C@@]1(C)CO1
GRmax: −0.99
--
smiles.representation: N.N.O=C([O-])C1(C(=O)[O-])CCC1.[Pt+2]
GRmax: 0.03
